- Tested on: A673/TR/shEF
- Assay Remarks: cell viability (LOESS-normalised, relative to median of negative controls) (log2 ratio); higher = more viable cells (less compound effect), active = hit call of the paper (over 3 MAD below the median)
- Stated Conditions: 0.926 µM; library screen: screen3; EWS-FLI1 expression: high (no doxycycline); treatment time: 72 h
Among all 3,200 compounds or so, about 300 (9.4%) showed activity. This is one part of a sample in which actives are shown more often than they occur.
API: label(entry) gives yes if the entry's cell viability (log2) is strictly smaller than -0.008; on equality or larger values it gives no.

Examples with answers:
[
  {
    "Molecule": "COc1ccc(Cl)cc1C(=O)NCCc1ccc(S(=O)(=O)NC(=O)NC2CCCCC2)cc1",
    "Qualitative Label": "no"
  },
  {
    "Molecule": "C#Cc1cccc(Nc2ncnc3cc(OCCOC)c(OCCO)cc23)c1",
    "Qualitative Label": "yes"
  },
  {
    "Molecule": "Cc1cnc(C(=O)NCCc2ccc(S(=O)(=O)NC(=O)NC3CCCCC3)cc2)cn1",
    "Qualitative Label": "no"
  },
  {
    "Molecule": "C[N+]1(C)C2CC(OC(=O)C(O)(c3cccs3)c3cccs3)CC1C1OC12 (stereo not given)",
    "Qualitative Label": "yes"
  }
]

Problem: Strictly below -0.008 in cell viability (log2)? `CCCSc1ccc2nc(NC(=O)OC)[nH]c2c1`
Solution: no

Problem: API: query returns whether the molecule falls strictly under -0.008 in cell viability (log2). Query: `CCN(CC)CCNC(=O)c1c(C)[nH]c(/C=C2\C(=O)Nc3ccc(F)cc32)c1C`
Solution: yes

Problem: Given `CC(C)C[C@H](NC(=O)[C@H](Cc1ccccc1)NC(=O)c1cnccn1)B(O)O` , is recorded cell viability (log2) strictly lower than -0.008?
Solution: yes

Problem: Input `C[C@]12CC[C@@H]3c4ccc(O)cc4CC[C@H]3[C@@H]1CC[C@@H]2O` ; condition: cell viability (log2) strictly below -0.008. Does it hold?
Solution: no

Problem: Could you please tell me whether cell viability (log2) recorded for `CC(=O)O[C@@]12CO[C@@H]1C[C@H](O)[C@@]1(C)C(=O)[C@H](O)C3=C(C)[C@@H](OC(=O)[C@H](O)[C@@H](NC(=O)OC(C)(C)C)c4ccccc4)C[C@@](O)([C@@H](OC(=O)c4ccccc4)[C@H]21)C3(C)C` is less than -0.008?
Solution: yes

Problem: Answer whether the molecule CCC1=C(C)CN(C(=O)NCCc2ccc(S(=O)(=O)NC(=O)NC3CCC(C)CC3)cc2)C1=O (stereo not given) has cell viability (log2) strictly less than -0.008
Solution: yes

====

- Test system: A673/TR/shEF
- Assay Remarks: cell viability (LOESS-normalised, relative to median of negative controls) (log2 ratio); higher = more viable cells (less compound effect), active = hit call of the paper (over 3 MAD below the median)
- Stated Conditions: 2.5 µM; library screen: screen2; EWS-FLI1 expression: low (doxycycline-induced shRNA knockdown); treatment time: 72 h
The campaign covered roughly 3,200 compounds. About 300 (9.4%) showed activity. The sample as a whole holds a higher share of actives than the screen did.
Attribute Measured: cell viability (log2)

Take a look at these entries with their results.
[
  {
    "Compound": "NCCNS(=O)(=O)c1cccc2cnccc12",
    "cell viability (log2)": "0.0865 (inactive)"
  },
  {
    "Compound": "COc1cc(/C=C(\\C#N)C(=O)c2ccc(O)c(O)c2)cc(I)c1O",
    "cell viability (log2)": "-0.0106 (inactive)"
  },
  {
    "Compound": "C[n+]1c2cc(N)ccc2cc2ccc(N)cc21",
    "cell viability (log2)": "-0.0252 (inactive)"
  }
]

Problem: Tell us which cell viability (log2) value is on record for CCCCCCCCCCCCCCCC(=O)NCC(COP(=O)([O-])OCC[N+](C)(C)C)OC (stereo unspecified)
Solution: 0.0176 (inactive)

Problem: Supply reported cell viability (log2) belonging to this compound: Cc1cccc(C)c1OCC(N)C(C)C (stereo unspecified)
Solution: 0.00962 (inactive)

====

- Test system: A673/TR/shEF
- Assay Remarks: cell viability (LOESS-normalised, relative to median of negative controls) (log2 ratio); higher = more viable cells (less compound effect), active = hit call of the paper (over 3 MAD below the median)
- Stated Conditions: 0.103 µM; library screen: screen3; EWS-FLI1 expression: high (no doxycycline); treatment time: 72 h
Hit rate of the full screen: of about 3,200 compounds, about 300 (9.4%) showed activity. What follows is part of a selection rich in actives, with near analogues and random picks from the rest.
A collection of compounds and their measured cell viability (log2)
# output: bare number, no unit

[
  {
    "Structure Smiles": "CO[C@H]1C[C@@H]2CC[C@@H](C)[C@@](O)(O2)C(=O)C(=O)N2CCCC[C@H]2C(=O)O[C@H]([C@H](C)C[C@@H]2CC[C@@H](O)[C@H](OC)C2)CC(=O)[C@H](C)/C=C(\\C)[C@@H](O)[C@@H](OC)C(=O)[C@H](C)C[C@H](C)/C=C/C=C/C=C/1C",
    "Target Of Assay": "A673/TR/shEF",
    "Value": -0.737
  }
]

Problem: Please give the documented cell viability (log2) of `CO[C@H]1CC2CC[C@@H](C)[C@@](O)(O2)C(=O)C(=O)N2CCCC[C@H]2C(=O)O[C@H]([C@H](C)C[C@@H]2CC[C@@H](OP(C)(C)=O)[C@H](OC)C2)CC(=O)[C@H](C)/C=C(\C)[C@@H](O)[C@@H](OC)C(=O)[C@H](C)C[C@H](C)/C=C/C=C/C=C/1C`
Solution: -0.93

====

- System: A673/TR/shEF
- Assay Remarks: cell viability (LOESS-normalised, relative to median of negative controls) (log2 ratio); higher = more viable cells (less compound effect), active = hit call of the paper (over 3 MAD below the median)
- Stated Conditions: 0.308 µM; library screen: screen3; EWS-FLI1 expression: low (doxycycline-induced shRNA knockdown); treatment time: 72 h
About 300 (9.4%) of roughly 3,200 compounds showed activity. What follows is part of a selection rich in actives, with near analogues and random picks from the rest.
Thanks in advance; please answer with one of these: true (1) = active, false (0) = inactive

# example entries with known answers
[
  {
    "Molecule": "CCN(CCO)CCCOc1ccc2c(Nc3cc(CC(=O)Nc4cccc(F)c4)[nH]n3)ncnc2c1",
    "Qualitative Label": "false (0)"
  },
  {
    "Molecule": "CN(C)c1ccc(C(=C2C=CC(=[N+](C)C)C=C2)c2ccc(N(C)C)cc2)cc1",
    "Qualitative Label": "false (0)"
  },
  {
    "Molecule": "COc1ccc(Cl)cc1C(=O)NCCc1ccc(S(=O)(=O)NC(=O)NC2CCCCC2)cc1",
    "Qualitative Label": "false (0)"
  },
  {
    "Molecule": "Nc1nc(Cl)nc2c1ncn2[C@H]1C[C@H](O)[C@@H](CO)O1",
    "Qualitative Label": "false (0)"
  },
  {
    "Molecule": "CCC1=C[C@@H]2CN(C1)Cc1c([nH]c3ccccc13)[C@@](C(=O)OC)(c1cc3c(cc1OC)N(C)[C@H]1[C@@](O)(C(=O)OC)[C@H](OC(C)=O)[C@]4(CC)C=CCN5CC[C@]31[C@@H]54)C2",
    "Qualitative Label": "true (1)"
  },
  {
    "Molecule": "Cc1cc(Nc2cc(CN3CCOCC3)c3nc(C)c(Cc4ccc(Cl)cc4F)n3n2)n[nH]1",
    "Qualitative Label": "false (0)"
  },
  {
    "Molecule": "CCC1(c2ccccc2)C(=O)NCNC1=O",
    "Qualitative Label": "false (0)"
  },
  {
    "Molecule": "CCC1=C(C)CN(C(=O)NCCc2ccc(S(=O)(=O)NC(=O)NC3CCC(C)CC3)cc2)C1=O (stereo unspecified)",
    "Qualitative Label": "false (0)"
  }
]

Problem: Please indicate how the test categorized `COc1cccc2c1C(=O)c1c(O)c3c(c(O)c1C2=O)C[C@@](O)(C(C)=O)C[C@@H]3O[C@H]1C[C@H](N)[C@H](O)[C@H](C)O1` .
Solution: true (1)

Problem: Returns: the outcome recorded for `Cn1cc(C2=C(c3ccc(Cl)cc3Cl)C(=O)NC2=O)c2ccccc21` in this assay.
Solution: false (0)

Problem: What call does the record list for Clc1ccc(COC(Cn2ccnc2)c2ccc(Cl)cc2Cl)c(Cl)c1 (stereo unspecified) ?
Solution: false (0)

Problem: Just curious, what result did `[Cl][Pt+2][Cl].[NH2-].[NH2-]` get here?
Solution: false (0)

Problem: Identify the outcome logged in this assay for the molecule shown: `CC[C@]1(O)C[C@H]2CN(CCc3c([nH]c4ccccc34)[C@@](C(=O)OC)(c3cc4c(cc3OC)N(C=O)[C@H]3[C@@](O)(C(=O)OC)[C@H](OC(C)=O)[C@]5(CC)C=CCN6CC[C@]43[C@@H]65)C2)C1`
Solution: true (1)

Problem: Give the logged outcome of this assay for the following molecule: `Nc1nc(Cl)nc2c1ncn2[C@@H]1O[C@H](CO)[C@@H](O)[C@@H]1F`
Solution: false (0)

Problem: Called result for `C[C@]12CC[C@@H]3c4ccc(O)cc4CC[C@H]3[C@@H]1CC[C@@H]2O`
Solution: false (0)

Problem: # outcome recorded in this test, key = `C#Cc1cccc(Nc2ncnc3cc(OCCOC)c(OCCO)cc23)c1`
Solution: false (0)

Problem: I would be grateful if you could indicate the recorded call for `O=c1c(-c2ccc(O)cc2)coc2cc(O)ccc12` .
Solution: false (0)

Problem: Per the assay record, what outcome was assigned to `O=C1NC(=O)C(c2ccccc2)(c2ccccc2)N1` ?
Solution: false (0)

Problem: Given `CCCCC(=O)N(Cc1ccc(-c2ccccc2-c2nn[nH]n2)cc1)[C@H](C(=O)O)C(C)C` , state the outcome it received in this test.
Solution: false (0)

Problem: Tell me the recorded outcome of this test for `Cc1nc(Nc2ncc(C(=O)Nc3c(C)cccc3Cl)s2)cc(N2CCN(CCO)CC2)n1` .
Solution: false (0)

Problem: Fill in: this test's call for `Cn1cnc2c(F)c(Nc3ccc(Br)cc3Cl)c(C(=O)NOCCO)cc21` is ___
Solution: false (0)

Problem: Status in this test for `Cc1cnc(C(=O)NCCc2ccc(S(=O)(=O)NC(=O)NC3CCCCC3)cc2)cn1` ?
Solution: false (0)

Problem: State the result this test recorded for `CC1(C)S[C@@H]2[C@H](NC(=O)[C@H](N)c3ccc(O)cc3)C(=O)N2[C@H]1C(=O)O` .
Solution: false (0)

Problem: Could you check what this test reported for `Cn1c(CNc2ccc(C(=N)N)cc2)nc2cc(C(=O)N(CCC(=O)O)c3ccccn3)ccc21` ?
Solution: false (0)

Problem: // param item: `CCCCCCOC(=O)/N=C(/N)c1ccc(NCc2nc3cc(C(=O)N(CCC(=O)OCC)c4ccccn4)ccc3n2C)cc1` ; yields the recorded call
Solution: false (0)

Problem: Called result for `[Na+].[Na+].[Na+].[O]=[V]([O-])([O-])[O-]`
Solution: false (0)
